# Species on record: Mus musculus
# METHOD_DESCRIPTION: Analgesic activity in mice by phenyl quinone-induced writhing assay with respect to aspirin.
# Assay type: functional
VALUE_TYPE: relative potency
Kindly provide the number alone.

I am curious: what relative potency value has been reported for CCc1cc2n(c1C(=O)c1ccc(F)cc1)CCC2C(=O)O (stereo unspecified) ?
121

For the molecule Cc1cc2n(c1C(=O)c1ccccc1)CCC2C(=O)O (stereo unspecified) , what relative potency is on record?
250

Which relative potency value is on record for `COc1ccc2c(c1)c(CC(=O)O)c(C)n2C(=O)c1ccc(Cl)cc1` ?
60

Endpoint output: relative potency of `COc1ccc2cc([C@H](C)C(=O)O)ccc2c1` . Value?
7

====

# Species on record: Rattus norvegicus
# METHOD_DESCRIPTION: Antiinflammatory activity was determined by inhibition of adjuvant-induced arthritis in rats with respect to naproxen
# Assay type: functional
Exercise: for every item that follows, state its recorded relative potency.
Form field (numeric): enter value without unit.

State the recorded relative potency for this entry: COc1ccc(C(=O)c2c(Cl)cc3n2CCC3C(=O)O)cc1 (centres undefined)
4

Bench note: what relative potency did Cc1cc2n(c1C(=O)c1ccc(Cl)cc1)CCC2C(=O)O (centres undefined) show?
3.5

// relative potency lookup, key: Cc1ccc(C(=O)c2c(C)cc3n2CCC3C(=O)O)cc1 (centres undefined)
3

Requested field: relative potency. Item: Cc1cc2n(c1C(=O)c1ccc(F)cc1)CCC2C(=O)O (centres undefined)
3

Returns the measured relative potency for the input compound. Input: Cc1ccc(C(=O)c2c(Cl)cc3n2CCC3C(=O)O)cc1 (centres undefined)
11

Would you kindly share the measured relative potency for Cc1cc2n(c1C(=O)c1ccccc1)CCC2C(=O)O (centres undefined) ?
1

What value of measured relative potency is listed for O=C(c1ccc(Cl)cc1)c1c(Cl)cc2n1CCC2C(=O)O (centres undefined) ?
40

# get_value(readout='relative potency', item= O=C(c1ccc(F)cc1)c1c(Cl)cc2n1CCC2C(=O)O (centres undefined) )
13

====

Please respond with reported relative potency for every item in the list.
# Species on record: Mus musculus
# METHOD_DESCRIPTION: Analgesic activity in mice by phenyl quinone-induced writhing assay with respect to aspirin.
# Type: functional
Give only the figure.

# get_value(readout='relative potency', item= CSc1ccc(C(=O)c2c(Cl)cc3n2CCC3C(=O)O)cc1 (stereo unspecified) )
100

Which value of relative potency has been reported for Cc1cc2n(c1C(=O)c1ccc(Cl)cc1)CCC2C(=O)O (stereo unspecified) in the records?
167

relative potency for O=C(c1ccccc1)c1c(Cl)cc2n1CCC2C(=O)O (stereo unspecified) ?
246

Need relative potency of Cc1cc(CC(=O)O)n(C)c1C(=O)c1ccc(Cl)cc1 [ZOMEPIRAC] , thanks.
36

Field request: relative potency | item: COCCc1cc2n(c1C(=O)c1ccc(Cl)cc1)CCC2C(=O)O (stereo unspecified)
5

Form field: reported relative potency of O=C(c1ccc(Cl)cc1)c1c(Cl)cc2n1CCC2C(=O)O (stereo unspecified)
167

Would you kindly share the measured relative potency for Cc1ccc(C(=O)c2c(C)cc3n2CCC3C(=O)O)cc1 (stereo unspecified) ?
250

Which measured relative potency value corresponds to C1CCC(NC2CCCCC2)CC1.Cc1cc2n(c1C(=O)c1ccccc1)CCC2(C)C(=O)O (stereo unspecified) ?
40

Please report the recorded relative potency for Cc1cc2n(c1C(=O)c1ccc(F)cc1)CCC2C(=O)O (stereo unspecified) .
302

What value of measured relative potency is listed for COCCc1cc2n(c1C(=O)c1ccccc1)CCC2C(=O)O (stereo unspecified) ?
7.6

====

So I've got a bunch of molecules here, and I need their relative potency values.
# Organism: Mus musculus
# METHOD_DESCRIPTION: Analgesic activity in mice by phenyl quinone-induced writhing assay with respect to aspirin.
# Assay type: functional
The answer should be a number; do not append a unit.

Which measured relative potency value corresponds to O=C(c1ccc(F)cc1)c1c(Cl)cc2n1CCC2C(=O)O (centres undefined) ?
151

Record request: relative potency value, item COc1ccc(C(=O)c2c(C)cc3n2CCC3C(=O)O)cc1 (centres undefined)
130

Bench note: what relative potency did O=C(c1ccc(F)cc1)c1c(Br)cc2n1CCC2C(=O)O (centres undefined) show?
120

// relative potency lookup, key: COc1ccc(C(=O)c2c(Cl)cc3n2CCC3C(=O)O)cc1 (centres undefined)
201

Could you tell me which relative potency is on file for O=C(c1ccccc1)c1c(Br)cc2n1CCC2C(=O)O (centres undefined) ?
314

Bench note: what relative potency did Cc1ccc(C(=O)c2c(Cl)cc3n2CCC3C(=O)O)cc1 (centres undefined) show?
158

State the recorded relative potency for this entry: CCc1cc2n(c1C(=O)c1ccccc1)CCC2C(=O)O (centres undefined)
108

# input molecule: COCCc1cc2n(c1C(=O)c1ccc(F)cc1)CCC2C(=O)O (centres undefined) ; wanted: its relative potency
1.1

Provenance of the data: ChEMBL document CHEMBL1123902
